pIC50 overview
biological target: human recombinant ATX (Homo sapiens); assay: Autotaxin (ATX) activity Quanta Red assay; assay type: biochemical; settings: read-out: Activity (ATX activity, Quanta Red assay; IC50)
Reminder that pIC50 means the negative base-10 logarithm of the concentration expressed in mol/L.

Record excerpt, results attached:
INSERT INTO measurements (compound, measuredresult) VALUES
  ('C[C@H](NC(=O)CCc1nc2cccnc2n1Cc1ccc(F)c(F)c1)c1ccc(N2CCC(N(C)C)C2)cc1 (stereo partly shown)', 8.52),
  ('CC(C)COc1ccc(Cn2c(CCC(=O)N[C@@H](C)c3ccc(F)cc3)nc3cccnc32)cc1', 6.15),
  ('C[C@H](NC(=O)CCc1nc2cccnc2n1Cc1ccc(OC(F)(F)F)cc1)c1ccc(N[C@H]2CCNC2)cc1', 8.52);

// next item, pIC50 requested
Briefly, pIC50 measured for `COc1ccc(Cn2c(CCC(=O)N[C@@H](C)c3ccc(F)cc3)nc3cccnc32)cc1` : 7.66

---

target: human recombinant ATX (Homo sapiens); assay: Autotaxin (ATX) activity Quanta Red assay; assay type: biochemical; settings: read-out: Activity (ATX activity, Quanta Red assay; IC50)
pIC50: −log10 of the molar value.
Kind request: treat 8 as inclusive, so pIC50 at 8 or higher is TRUE, anything lower is FALSE.

INSERT INTO measurements (compound, labelclass) VALUES
  ('Cc1ccc([C@H](C)NC(=O)CCc2nc3cccnc3n2Cc2ccc(F)c(F)c2)cc1 [Example 85]', 'TRUE'),
  ('O=C(CSc1nc2cccnc2n1Cc1ccc(OC(F)(F)F)cc1)N[C@@H](CO)c1ccccc1 [Example 142]', 'TRUE'),
  ('C[C@H](NC(=O)CCc1nc2cccnc2n1Cc1ccc(F)c(F)c1)c1ccc(Br)cc1 [Example 17]', 'TRUE'),
  ('COc1ccc(CNC(=O)CCc2nc3cc(C)cnc3n2Cc2ccc(OC(F)(F)F)cc2)cc1F [Example 52]', 'FALSE'),
  ('O=C(CCc1nc2cccnc2n1Cc1ccc(F)c(F)c1)NCc1ccc(OC(F)(F)F)cc1 [Example 57]', 'FALSE'),
  ('O=C(CCc1nc2cccnc2n1Cc1ccc(OC(F)(F)F)cc1)NCC1CCN(C(=O)C2CC2)CC1 [Example 215]', 'FALSE'),
  ('CN(C)CCOc1ccc(CNC(=O)CCc2nc3cccnc3n2Cc2ccc(OC(F)(F)F)cc2)cc1 [Example 19]', 'TRUE'),
  ('C[C@H](NC(=O)CCc1nc2cccnc2n1Cc1ccc(F)cc1)c1ccc(N2CCCCCC2)cc1 [Example 178]', 'TRUE'),
  ('O=C(CCc1nc2cccnc2n1Cc1ccc(OC(F)(F)F)cc1)N[C@@H](CS)c1ccccc1 [Example 209]', 'TRUE'),
  ('C[C@H](NC(=O)OCc1nc2cccnc2n1Cc1ccc(F)cc1)c1ccc(F)cc1 [Example 166]', 'FALSE');

input: Hello, I need to know if COc1ccc(Cn2c(CCC(=O)N[C@H](C)c3ccccc3)nc3cccnc32)cc1 [Example 112] has measured pIC50 not below 8. Thanks!
output: FALSE

---

target: human recombinant ATX (Homo sapiens, UniProt Q13822); assay: Autotaxin (ATX) activity Quanta Red assay; format: biochemical; details: read-out: Activity (ATX activity, Quanta Red assay; IC50)
IC50 overview
Value expressed in nM; do not type the unit.

Record excerpt, results attached:
INSERT INTO results (cpdsmiles, testedon, measuredresult) VALUES
  ('O=C(CCc1nc2cccnc2n1Cc1ccc(OC(F)(F)F)cc1)NC[C@H](O)c1ccccc1', 'human recombinant ATX (Homo sapiens, UniProt Q13822)', 7),
  ('C[C@H](NC(=O)CCc1cc2cccnc2n1Cc1ccc(Cl)cc1)c1ccc(F)cc1', 'human recombinant ATX (Homo sapiens, UniProt Q13822)', 10),
  ('C[C@H](NC(=O)CCc1nc2cccnc2n1Cc1ccc(F)c(F)c1)c1ccccn1', 'human recombinant ATX (Homo sapiens, UniProt Q13822)', 247),
  ('COc1ccc(CNC(=O)CCc2nc3cccnc3n2Cc2ccc(F)c(F)c2)cc1', 'human recombinant ATX (Homo sapiens, UniProt Q13822)', 50),
  ('O=C(CCc1nc2cccnc2n1Cc1cccc(OC(F)(F)F)c1)NCc1cccc(OC(F)(F)F)c1', 'human recombinant ATX (Homo sapiens, UniProt Q13822)', 476);

Briefly, IC50 measured for `C[C@H](NC(=O)CSc1nc2cccnc2n1Cc1ccc(F)cc1)c1ccc(N2CCOCC2)cc1` : 3

Briefly, IC50 measured for `O=C(NCc1nc2cccnc2n1Cc1ccc(F)c(F)c1)N[C@@H](CO)c1ccccc1` : 209

Briefly, IC50 measured for `C[C@@H](c1ccc(F)cc1)n1c(CCC(=O)N[C@H](Cc2ccccc2)C(=O)O)nc2cccnc21` : 598
